The measured values listed here are drawn from paper PMC8809517.

Target: T1, GFP-9S library array, motif 4 ND N98H;D124Q (synthetic construct, N98H;D124Q)
T1 chain: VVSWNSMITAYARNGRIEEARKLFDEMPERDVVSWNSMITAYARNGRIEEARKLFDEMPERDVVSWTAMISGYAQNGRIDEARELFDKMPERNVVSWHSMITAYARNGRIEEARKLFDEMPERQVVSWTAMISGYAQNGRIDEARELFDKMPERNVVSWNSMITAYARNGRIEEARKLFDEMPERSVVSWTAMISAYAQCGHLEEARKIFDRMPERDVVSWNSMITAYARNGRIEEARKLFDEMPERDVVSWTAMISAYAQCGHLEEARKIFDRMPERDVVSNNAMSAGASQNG
Assay: high-throughput RNA pulldown from lysate on Ni-NTA beads; HRP: 50 mM Tris pH 8, 150 mM NaCl, 1 mM beta-mercaptoethanol, 50 ug/ml BSA, 3 ug/ml yeast RNA, 0.5% heparin; ITC and FP: Tris pH 8, 200 mM KCl, 5% glycerol; MST: 50 mM Tris pH 8, 200 mM NaCl, 1 mM DTT, BSA, heparin, 0.05% Tween 20
Details: tags: N-terminal His-eGFP; label: 5' Cy5
pKd: −log10 of the molar value.
# reported pKd; entries follow
observed_property: pKd

INSERT INTO assay_data (binder, observed_property, measured_value) VALUES
  ('AUUAGACGUGA (ssRNA) [Cy5-rpoA-G]', 'pKd', 7.22),
  ('AUUACACGUGA (ssRNA) [Cy5-rpoA]', 'pKd', 7.16);
